Target: human NaV 1.8 (Homo sapiens, UniProt Q9Y5Y9)
Sequence (Q9Y5Y9 whole entry, looked up): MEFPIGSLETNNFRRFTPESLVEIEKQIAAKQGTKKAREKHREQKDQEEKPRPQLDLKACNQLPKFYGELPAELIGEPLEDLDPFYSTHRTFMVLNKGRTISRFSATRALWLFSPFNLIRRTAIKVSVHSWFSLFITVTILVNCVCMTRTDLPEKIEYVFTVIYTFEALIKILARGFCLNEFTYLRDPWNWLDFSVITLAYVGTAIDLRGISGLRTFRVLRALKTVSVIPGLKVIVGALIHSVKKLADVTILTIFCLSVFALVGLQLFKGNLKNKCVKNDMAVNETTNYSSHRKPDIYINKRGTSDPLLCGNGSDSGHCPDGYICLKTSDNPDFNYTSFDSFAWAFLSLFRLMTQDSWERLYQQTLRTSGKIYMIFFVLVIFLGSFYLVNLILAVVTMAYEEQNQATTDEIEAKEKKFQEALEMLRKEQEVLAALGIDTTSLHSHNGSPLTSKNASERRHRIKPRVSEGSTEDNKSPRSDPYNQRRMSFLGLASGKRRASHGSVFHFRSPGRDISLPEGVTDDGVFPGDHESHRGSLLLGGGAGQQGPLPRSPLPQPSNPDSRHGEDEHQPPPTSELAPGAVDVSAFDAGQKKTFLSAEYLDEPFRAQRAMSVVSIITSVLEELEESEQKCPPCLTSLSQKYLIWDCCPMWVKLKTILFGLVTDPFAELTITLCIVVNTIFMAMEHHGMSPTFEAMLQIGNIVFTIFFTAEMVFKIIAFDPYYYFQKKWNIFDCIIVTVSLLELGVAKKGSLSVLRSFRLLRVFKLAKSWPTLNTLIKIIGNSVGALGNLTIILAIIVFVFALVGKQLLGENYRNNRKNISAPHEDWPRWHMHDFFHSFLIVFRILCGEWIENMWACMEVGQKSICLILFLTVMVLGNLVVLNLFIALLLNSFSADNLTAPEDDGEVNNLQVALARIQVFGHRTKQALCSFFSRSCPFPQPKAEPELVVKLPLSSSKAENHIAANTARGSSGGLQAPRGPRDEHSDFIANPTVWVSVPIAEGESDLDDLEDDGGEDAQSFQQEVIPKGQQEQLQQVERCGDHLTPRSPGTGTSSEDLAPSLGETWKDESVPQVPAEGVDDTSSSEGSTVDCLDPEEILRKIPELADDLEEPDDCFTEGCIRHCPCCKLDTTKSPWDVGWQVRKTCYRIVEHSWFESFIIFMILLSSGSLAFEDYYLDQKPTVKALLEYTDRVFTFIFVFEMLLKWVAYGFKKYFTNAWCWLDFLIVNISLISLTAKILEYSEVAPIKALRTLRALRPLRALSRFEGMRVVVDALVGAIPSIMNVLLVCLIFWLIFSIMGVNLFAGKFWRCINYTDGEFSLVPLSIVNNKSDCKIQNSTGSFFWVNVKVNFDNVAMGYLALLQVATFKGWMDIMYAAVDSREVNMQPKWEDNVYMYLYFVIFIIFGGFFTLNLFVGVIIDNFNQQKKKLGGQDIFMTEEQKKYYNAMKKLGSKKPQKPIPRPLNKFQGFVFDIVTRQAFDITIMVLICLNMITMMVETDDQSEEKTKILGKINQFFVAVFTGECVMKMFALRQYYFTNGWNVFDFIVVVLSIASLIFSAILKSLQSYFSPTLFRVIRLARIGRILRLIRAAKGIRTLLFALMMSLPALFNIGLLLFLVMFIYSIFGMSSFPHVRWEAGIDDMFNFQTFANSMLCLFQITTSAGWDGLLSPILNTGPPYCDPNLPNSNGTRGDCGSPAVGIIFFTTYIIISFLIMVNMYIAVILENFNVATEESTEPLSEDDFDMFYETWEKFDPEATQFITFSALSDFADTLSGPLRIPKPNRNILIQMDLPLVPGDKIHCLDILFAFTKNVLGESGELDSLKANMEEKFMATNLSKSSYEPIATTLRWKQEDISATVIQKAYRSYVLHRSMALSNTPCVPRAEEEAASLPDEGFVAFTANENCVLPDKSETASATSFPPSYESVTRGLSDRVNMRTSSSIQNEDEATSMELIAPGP
Assay: E-VIPR assay for detecting and measuring NaV inhibition properties
Assay type: cell-based
Details: E-VIPR assay conducted in the presence of human serum; HEK cells expressing truncated human NaV 1.8; read-out: IC50
Note to self: IC50 under 30 nM means 1.0, ties and anything higher get 0.0.

Solved cases below.
[2H]C([2H])([2H])Oc1cc(OC(F)(F)F)ccc1Oc1cc(C2=CCOCC2)cc(F)c1C(=O)Nc1ccnc(C(N)=O)c1; 0.0
COc1ccc(Oc2ccc(C(F)(F)F)c(C)c2C(=O)Nc2ccc(C(N)=O)nc2)c(Cl)c1; 0.0
COc1c(Oc2ccc(C(F)(F)F)c(F)c2C(=O)Nc2ccc(C(N)=O)nc2)ccc(OC(F)(F)F)c1F; 1.0
COc1cc(OC(F)(F)F)ccc1Oc1ccc(Cl)c(F)c1C(=O)Nc1cc(C(N)=O)[n+]([O-])cc1C; 1.0
COc1cc(Cl)ccc1Oc1ccc(C(F)(F)F)c(F)c1C(=O)Nc1ccnc(C(N)=O)c1; 1.0
COc1c(Oc2ccc(C(F)(F)F)c(Br)c2C(=O)Nc2ccnc(C(N)=O)c2)ccc(OC(F)(F)F)c1F; 1.0

Qu. is_below(IC50, 30 nM) for `Cc1c(C(F)(F)F)ccc(Oc2ccc(OC(C)C)c(F)c2F)c1C(=O)Nc1ccnc(C(N)=O)c1` ?
Ans. 1.0

* * *

Molecular target: human NaV 1.8 (Homo sapiens)
Test: E-VIPR assay for detecting and measuring NaV inhibition properties
Assay type: cell-based
Details: E-VIPR assay conducted in the presence of human serum; HEK cells expressing truncated human NaV 1.8; read-out: IC50
Collected IC50 values appear next to each entry.
Unit nM implied. Number only.

Qu. Field request: IC50 | item: `Cc1c2c(cc(Oc3ccc(OC(F)(F)F)cc3Cl)c1C(=O)Nc1ccc(C(N)=O)nc1)OC(F)(F)O2`
Ans. 570

Qu. What value of measured IC50 is listed for `[2H]C([2H])([2H])Oc1cc(OC(F)(F)F)ccc1Oc1cc(C2=COCC2)cc(F)c1C(=O)Nc1ccnc(C(N)=O)c1` ?
Ans. 21

* * *

Biological target: human NaV 1.8 (Homo sapiens, UniProt Q9Y5Y9)
Assay: E-VIPR assay for detecting and measuring NaV inhibition properties
Type: cell-based
Settings: E-VIPR assay conducted in the presence of human serum; HEK cells expressing truncated human NaV 1.8; read-out: IC50
Some molecules, each annotated with its measured IC50.
The answer is to be given in nM; state only the numeric part.

Example molecules with recorded IC50:
[2H]C([2H])([2H])Oc1cc(OC(F)(F)F)ccc1Oc1ccc(C(F)(F)F)cc1C(=O)Nc1ccnc(C(N)=O)c1; 73
COc1c(Oc2ccc(Cl)c(F)c2C(=O)Nc2ccc(C(N)=O)nc2)ccc(OC(F)(F)F)c1F; 19
COc1cc(OC(F)(F)F)ccc1Oc1cc(C(F)(F)F)c(C)c(F)c1C(=O)Nc1ccnc(C(N)=O)c1; 3.6
COc1cc(OC(F)(F)F)ccc1Oc1ccc(F)c(F)c1C(=O)Nc1cc(C(N)=O)ncc1C; 66
NC(=O)c1cc(NC(=O)c2c(Oc3ccc(F)c(Cl)c3)ccc(C(F)(F)F)c2F)ccn1; 160
COc1cc(OC(F)(F)F)ccc1Oc1cc(-c2ccc(F)cc2)ccc1C(=O)Nc1ccnc(C(N)=O)c1; 730
COc1cc(OC(F)(F)F)ccc1Oc1cc(C2CC3CCC2C3)cc(F)c1C(=O)Nc1ccnc(C(N)=O)c1 (centres unmarked); 9
COc1cc(OC(F)(F)F)ccc1Oc1cc2c(c(C)c1C(=O)Nc1ccnc(C(N)=O)c1)OC(F)(F)O2; 6

Qu. Can you look up the measured IC50 of `COc1cc(OC(F)(F)F)ccc1Oc1ccc(C(F)(F)F)c(OCC2CC2)c1C(=O)Nc1ccnc(C(N)=O)c1` for me?
Ans. 625

Qu. Fill in the blank: the reported IC50 of `Cc1cc(Cl)ccc1Oc1ccc(C(F)(F)F)c(C)c1C(=O)Nc1ccc(C(N)=O)nc1` is ____.
Ans. 1400

Qu. Requested field: IC50. Item: `COc1c(Oc2ccc(C(F)(F)F)c(F)c2C(=O)Nc2cnc(C(N)=O)nc2)ccc(OC(F)(F)F)c1F`
Ans. 4.6

Qu. Fill blank: measured IC50 of the molecule `Cc1c(Oc2ccc(C(F)(F)F)c(F)c2C(=O)Nc2ccnc(C(N)=O)c2)ccc(OC(F)(F)F)c1F` is ____.
Ans. 3.9

Qu. IC50 lookup needed for `NC(=O)c1cc(NC(=O)c2cc(C(F)(F)F)ccc2Oc2ccc(F)c3c2OCC3)ccn1` , thanks.
Ans. 650

Qu. Name the reported IC50 value associated with the molecule `COc1cc(Cl)ccc1Oc1ccc(C(F)(F)F)c(F)c1C(=O)Nc1ccc(C(N)=O)nc1`
Ans. 530

Qu. Recorded IC50 of [2H]C([2H])([2H])Oc1cc(OC(F)(F)F)ccc1Oc1cc(C2=CCC(OC)CC2)cc(F)c1C(=O)Nc1ccnc(C(N)=O)c1 (centres unmarked) , please.
Ans. 170

Qu. What value of measured IC50 is listed for `Cc1cc(OC(F)(F)F)ccc1Oc1ccc(C(F)(F)F)c(C)c1C(=O)Nc1ccc(C(N)=O)nc1` ?
Ans. 170

Qu. Query: IC50; subject: `CNC(=O)c1cc(NC(=O)c2c(Oc3ccc(F)c(F)c3OC)cc(OC)c(C(F)(F)F)c2NC)ccn1`
Ans. 1400

Qu. Fill in the blank: the reported IC50 of `COc1cc(F)ccc1Oc1cccc(C(F)(F)F)c1C(=O)Nc1ccnc(C(N)=O)c1` is ____.
Ans. 1750

Qu. For the molecule `COc1c(Oc2cc3c(c(F)c2C(=O)Nc2ccnc(C(N)=O)c2)OC(C)(C)CO3)ccc(OC(F)(F)F)c1F` , what IC50 is on record?
Ans. 38

Qu. Value lookup for IC50; key = `COc1cc(Oc2ccc(F)c(F)c2OC)c(C(=O)Nc2ccc(C(N)=O)nc2)c(F)c1C(F)(F)F`
Ans. 16

Qu. Entry `COc1cc(OC(F)(F)F)ccc1Oc1cc(-c2ccc(Cl)cc2)ccc1C(=O)Nc1ccnc(C(N)=O)c1` has what IC50?
Ans. 505

Qu. Requested read-out: IC50. Entry: COc1cc(OC(F)(F)F)ccc1Oc1cc(C2=CCC(C(C)(C)C)CC2)cc(F)c1C(=O)Nc1ccnc(C(N)=O)c1 (centres unmarked)
Ans. 60

Qu. Requested read-out: IC50. Entry: `CC(F)(F)c1cc(F)ccc1Oc1ccc(C(F)(F)F)c(F)c1C(=O)Nc1ccnc(C(N)=O)c1`
Ans. 180

* * *

Molecular target: human NaV 1.8 (Homo sapiens, UniProt Q9Y5Y9)
Assay: E-VIPR assay for detecting and measuring NaV inhibition properties
Format: cell-based
Conditions: E-VIPR assay conducted in the presence of human serum; HEK cells expressing truncated human NaV 1.8; read-out: IC50
Reported metric: pIC50
pIC50 here is simply -log10 of the concentration when that concentration is written in mol/L.

Known results for compounds:
COc1cc(OC(F)(F)F)ccc1Oc1ccc(C(F)(F)F)c(Cl)c1C(=O)Nc1ccnc(C(N)=O)c1; 8.70
COc1c(C(F)(F)F)ccc(Oc2ccc(F)c3c2OCC3)c1C(=O)Nc1ccnc(C(N)=O)c1; 6.54
Cc1cc(Cl)ccc1Oc1ccc(C(F)(F)F)c(F)c1C(=O)Nc1ccc(C(N)=O)nc1; 6.13
COc1cc(OC(F)(F)F)ccc1Oc1cc2c(c(F)c1C(=O)Nc1ccnc(C(N)=O)c1)OCCO2; 7.77
[2H]C([2H])([2H])Oc1cc(OC(F)(F)F)ccc1Oc1cc(C(F)(F)F)c(F)cc1C(=O)Nc1ccc(C(N)=O)nc1; 6.20

Please look at the following compound next.
Qu. Which value of pIC50 has been reported for `COc1cc(OC(F)(F)F)ccc1Oc1cc(OC(F)(F)F)cc(C)c1C(=O)Nc1ccc(C(N)=O)nc1` in the records?
Ans. 6.48

* * *

Molecular target: human NaV 1.8 (Homo sapiens, UniProt Q9Y5Y9)
Experiment: E-VIPR assay for detecting and measuring NaV inhibition properties
Type: cell-based
Conditions: E-VIPR assay conducted in the presence of human serum; HEK cells expressing truncated human NaV 1.8; read-out: IC50
Excerpt: Sodium ion channels are voltage-dependent proteins that can be activated by inducing membrane voltage changes by applying electric fields. The electrical stimulation instrument and methods of use, referred to as E-VIPR, are described in International Publication No. WO 2002/008748 A3 and C.-J. Huang et al. Characterization of voltage-gated sodium channel blockers by electrical stimulation and fluorescence detection of membrane potential, 24 Nature Biotech. […]
Reported metric: pIC50
Units for pIC50: none; it is -log10 of a concentration expressed in mol/L.

COc1cc(OC(F)(F)F)ccc1Oc1ccc(C(F)(F)F)c(C2CC2)c1C(=O)Nc1ccnc(C(N)=O)c1 [Compound 281]; 6.89

Now look at this entry.
Qu. Give its pIC50 value. Item: Cc1cc(F)ccc1Oc1ccc(C(F)(F)F)c(F)c1C(=O)Nc1ccnc(C(N)=O)c1 [Compound 102]
Ans. 7.44
